System: subgenomic genotype 2a replicon cell line
TEST PROTOCOL: HCV replicon assay, genotype 2a
Type: cell-based, HCV genotype 2a
RECORDED CONDITIONS: Hepatitis C virus
Would you mind telling me the reported EC50 of each entry?
Numeric answer only, unit nM assumed.

Exercise: # get_value(readout='EC50', item= CCN(c1cc2nn(-c3ccc(Oc4ccccc4F)cc3)c(C(=O)NC)c2cc1C1CC1)S(C)(=O)=O )
Solution: 200

Exercise: Param item: CNC(=O)c1c2cc(C3CC3)c(N(CCCNC(=O)c3nonc3C)S(C)(=O)=O)cc2nn1-c1ccc(Br)cc1
Solution: 520

Exercise: Please answer likewise for CNC(=O)c1c2cc(C3CC3)c(N(CCCNC(=O)c3ccoc3)S(C)(=O)=O)cc2nn1-c1ccc(Br)cc1
Solution: 780

Exercise: Okay, and CNC(=O)c1c2cc(C3CC3)c(N(CCCNC(=O)c3ncoc3C)S(C)(=O)=O)cc2nn1-c1ccc(Br)cc1 ?
Solution: 1730

Exercise: Proceed to CCOC(=O)CCN(c1cc2nn(-c3ccc(Br)cc3)c(C(=O)NC)c2cc1C1CC1)S(C)(=O)=O
Solution: 3790

Exercise: Another: CNC(=O)c1c2cc(C3CC3)c(N(CCCNC(=O)c3cnn(C)c3C)S(C)(=O)=O)cc2nn1-c1ccc(Br)cc1
Solution: 1110

Exercise: Same lookup for CCOC(=O)CCC(=O)NCCCN(c1cc2nn(-c3ccc(Br)cc3)c(C(=O)NC)c2cc1C1CC1)S(C)(=O)=O , please.
Solution: 620

Recorded values, source patent US8546389B2.
